- Test system: Vero cells
Decide using Log AC50 (M): a value greater than or equal to -5 M is 1.0, a smaller one is 0.0.

COMPOUND: NC1(c2ccc(-c3nc4ccn5c(=O)[nH]nc5c4cc3-c3ccccc3)cc2)CCC1 [NCGC00186465-04]
ANSWER LABEL: 1.0
//
COMPOUND: Nc1ccc(C(=O)c2cc3c(ccc4ccccc43)[nH]2)cc1
ANSWER LABEL: 1.0
//
COMPOUND: C/C=C(/C)C(=O)O[C@H]1C(C)=C2[C@H]([C@@H]1OC(=O)CCCCCCC)[C@@](C)(OC(C)=O)C[C@H](OC(=O)CCC)[C@@]1(O)[C@H]2OC(=O)[C@@]1(C)O
ANSWER LABEL: 0.0
//
COMPOUND: CC1(C)CCC(C)(C)c2cc(NC(=O)c3ccc(C(=O)O)cc3)ccc21 [NCGC00181111-01]
ANSWER LABEL: 1.0
//
COMPOUND: C[C@@H]1C[C@H]2[C@@H]3CCC4=CC(=O)C=C[C@]4(C)[C@@]3(Cl)[C@@H](O)C[C@]2(C)[C@@]1(OC(=O)c1ccco1)C(=O)CCl
ANSWER LABEL: 1.0

From here, focus on the item given below.
Req: Form field: Log AC50 (M) at least -5 M? Entry: O=C1NC(=O)/C(=C/c2ccc3nccc(-c4ccncc4)c3c2)S1
Resp: 0.0

* * *

- System: wild-type ZIKV (Ugandan MR766 strain) in Vero cells
- METHOD: ZIKV cytopathic effect (CPE) inhibition qHTS assay, CellTiter-Glo readout
- Format: cell-based, Zika virus
Documented Efficacy across a set of compounds
// no unit string in output, number only

COMPOUND: Cc1cc2c(F)c(Oc3ncnn4cc(OCC(C)OC(=O)C(C)N)c(C)c34)ccc2[nH]1 (stereo not drawn)
Efficacy: -57.426

COMPOUND: C=CC/C=C\C/C=C\CCCCCCCc1cc(O)cc(O)c1
Efficacy: -22.946

COMPOUND: C=C1C(=O)O[C@@H]2/C=C(\CO)CC/C=C(/C=O)C[C@H](O)[C@@H]12
Efficacy: -41.449

COMPOUND: C/C=C(\C)C(=O)O[C@H]1C=C(CO)C(=O)[C@H](OC(C)=O)[C@H]1C(C)C
Efficacy: -32.712

COMPOUND: CC(/C=C/C=C(\C)C(=O)O[C@@H]1O[C@H](CO[C@@H]2O[C@H](CO)[C@@H](O)[C@H](O)[C@H]2O)[C@@H](O)[C@H](O)[C@H]1O)=C\C=C\C=C(C)\C=C\C=C(/C)C(=O)O[C@@H]1C[C@](O)(C(=O)O)C[C@@H](O)[C@H]1OC(=O)/C=C/c1ccc(O)c(O)c1
Efficacy: -78.383

Okay, now this compound:
Req: Consider the compound CCN(CC)C(=O)c1ccc(Nc2nc(OCC3CCCCC3)c3nc[nH]c3n2)cc1 and give its measured Efficacy.
Resp: -42.267

* * *

Below, each entry is listed alongside its reported Curve class.
- Test system: wild-type ZIKV (Ugandan MR766 strain) in Vero cells
- METHOD: ZIKV cytopathic effect (CPE) inhibition qHTS assay, CellTiter-Glo readout
- Assay type: cell-based, Zika virus
Enter the number alone.

Consider the reported Curve class for these compounds:
QUERY SMILES: CC1=C(CO)C(=O)O[C@@H]([C@@H](C)[C@H]2CC[C@H]3[C@@H]4C[C@H]5O[C@]56[C@@H](O)C=CC(=O)[C@]6(C)[C@H]4CC[C@]23C)C1
TEST TARGET: wild-type ZIKV (Ugandan MR766 strain) in Vero cells
Curve class: -3

QUERY SMILES: C=CC(=O)Nc1ccc2ncnc(Nc3cccc(Br)c3)c2c1
TEST TARGET: wild-type ZIKV (Ugandan MR766 strain) in Vero cells
Curve class: -3

Req: Give wild-type ZIKV (Ugandan MR766 strain) in Vero cells Curve class for C[C@H]1C(=O)N2c3ccccc3[C@@]3(O)C[C@@H]4C(=O)N[C@](C)(c5nc6ccccc6c(=O)n54)N1[C@@H]23
Resp: -3

* * *

- Tested on: ZIKV
ATTRIBUTE MEASURED: Selectivity Index ZIKV (CC50/EC50)

MOLECULE: CC(C)(C#N)c1ccc(N2C(=O)OCc3cnc4ccc(-c5cnc6ccccc6c5)cc4c32)cc1 [NCGC00386292-05]
VALUE REPORTED: 3

MOLECULE: C=C(C)[C@@]12O[C@@H]1[C@@]1(C)C(=CC2=O)CC[C@@H](OC(C)=O)[C@@H]1C [NCGC00380955-01, 3-Acetyl-13-deoxyphomenone]
VALUE REPORTED: 22

MOLECULE: Cc1[nH]c2ccccc2c1C1=C(NCCc2ccc(F)cc2)C(=O)N(C)C1=O [NCGC00386352-05]
VALUE REPORTED: 23

MOLECULE: CCC[S+](=O)([O-])Nc1ccc(F)c(C(=O)c2c[nH]c3ncc(-c4ccc(Cl)cc4)cc23)c1F [NCGC00250399-05]
VALUE REPORTED: 14

Now take the following molecule into account.
Req: Lab note: need Selectivity Index ZIKV (CC50/EC50) for OC1C=C2C3CN(Cc4cc5c(cc43)OCO5)C2CC1O (centres unmarked) [NCGC00385948-01] on ZIKV, anyone have it?
Resp: 5

* * *

- METHOD: in vitro
- CONDITION INFO: African green monkey
Entries and their CC50

Solved entries (count: 2):
COMPOUND: C/C=C(\C)C(=O)O[C@H]1[C@H](OC(C)=O)[C@]2(CO)[C@H](O)[C@H](O)[C@]3(C)C(=CCC4[C@@]5(C)CC[C@H](O[C@@H]6O[C@H](C(=O)O)[C@@H](O)[C@H](O[C@@H]7OC[C@H](O)[C@H](O[C@@H]8OC[C@H](O)[C@H](O)[C@H]8O)[C@H]7O)[C@H]6O[C@@H]6O[C@H](CO)[C@@H](O)[C@H](O)[C@H]6O)C(C)(C)C5CC[C@]43C)[C@@H]2CC1(C)C (stereo partly drawn)
CC50: > 50 µM

COMPOUND: CCC[S+](=O)([O-])Nc1ccc(F)c(C(=O)c2c[nH]c3ncc(-c4ccc(Cl)cc4)cc23)c1F
CC50: > 50 µM

Consider the additional compound presented here.
Req: Endpoint output: CC50 of CC1(C)CC2C3=CCC4[C@@]5(C)CC[C@H](OC6OCC(O)C(OC7OC(CO)C(O)C(O)C7O)C6O)C(C)(C)C5CC[C@@]4(C)[C@]3(C)C[C@H](O)[C@@]2(CO)[C@H](OC(=O)c2ccccc2)C1 (stereo partly drawn) . Value?
Resp: > 50 µM

* * *

// reported Efficacy for each item listed
- Tested on: wild-type ZIKV (Ugandan MR766 strain) in Vero cells
- METHOD: ZIKV cytopathic effect (CPE) inhibition qHTS assay, CellTiter-Glo readout
- Assay type: cell-based, Zika virus
# answer = number (no unit)

Recorded results for 3 compounds are shown here.
COMPOUND: CNC(=O)c1cc(Oc2ccc(NC(=O)Nc3cc(C(C)(C)C)nn3-c3ccc4ncccc4c3)c(F)c2)ccn1
ATTRIBUTE MEASURED: Efficacy
VALUE REPORTED: -30.756
--
COMPOUND: COc1cc2c(c(OC)c1CC=C(C)C)C[C@H](c1ccc(O)c(CC=C(C)C)c1O)CO2
ATTRIBUTE MEASURED: Efficacy
VALUE REPORTED: -25.574
--
COMPOUND: C=C1C(=O)O[C@H]2CC(=C)[C@H]3CC[C@@](C)(O)[C@@H]3CC12 (stereo partly shown)
ATTRIBUTE MEASURED: Efficacy
VALUE REPORTED: -31.171

# ---- query compound ----
Req: Request the reported Efficacy associated with CCOCCn1nc(CC)c2nc(N3CCC(C(=O)O)CC3)nc(Nc3cc(C)ccn3)c21
Resp: -25.995

* * *

Reported values of AC50 for individual entries
- System: wild-type ZIKV (Ugandan MR766 strain) in Vero cells
- METHOD: ZIKV cytopathic effect (CPE) inhibition qHTS assay, CellTiter-Glo readout
- Type: cell-based, Zika virus
- CONDITION INFO: Zika virus, Vero, read-out: Log AC50 (M) (converted)
Dear colleague, please return just the value in M, with no unit written.

COMPOUND: CN(C)c1cccc(-c2c3c(=O)n(-c4ccccc4Cl)[nH]c3cc(=O)n2C)c1 [NCGC00378460-08]
UNIT OF MEASUREMENT: M
AC50: 2.91e-05

Req: API: value(readout=AC50, system=wild-type ZIKV (Ugandan MR766 strain) in Vero cells) for record COC(=O)C1=C(C)NC(C)=C(C(=O)OC)C1c1cccc(NC(=O)NCCCN2CCC(c3cccc(OC)c3)CC2)c1 [NCGC00485144-01]
Resp: 7.31e-05

Req: Which measured AC50 belongs to CCOC(=O)C1=C(C)NC2=C(C(=O)CC(C)(C)C2)C1c1ccc(-c2ccccc2)cc1 (stereo not drawn) [NCGC00347947-06] , tested on wild-type ZIKV (Ugandan MR766 strain) in Vero cells?
Resp: 2.06e-05

Req: AC50 of C=CC(C)(O)CC[C@@H]1[C@@]2(C)CCCC(C)(C)C2CC[C@@]1(C)O (stereo partly drawn) [NCGC00386171-01] on wild-type ZIKV (Ugandan MR766 strain) in Vero cells?
Resp: 5.8e-05

Req: For wild-type ZIKV (Ugandan MR766 strain) in Vero cells, provide AC50 of CC(=O)OC[C@]12[C@H](OC(C)=O)C(=O)[C@@H]3[C@@H](O)[C@@]14O[C@@]3(C)COC(=O)c1cccnc1[C@@H](C)[C@H](C)C(=O)O[C@@H]([C@H](OC(C)=O)[C@@H]2OC(C)=O)[C@]4(C)O [NCGC00385298-01] please.
Resp: 1.72e-05

Req: Form field - read-out: AC50; system: wild-type ZIKV (Ugandan MR766 strain) in Vero cells; submitted item: CC(C)(C#N)c1ccc(N2C(=O)OCc3cnc4ccc(-c5cnc6ccccc6c5)cc4c32)cc1 [NCGC00386292-05]
Resp: 4.61e-06

Req: // lookup AC50 | system=wild-type ZIKV (Ugandan MR766 strain) in Vero cells | key= COc1cc2occc2c(O[C@@H]2O[C@H](CO)[C@@H](O)[C@H](O)[C@H]2O)c1CCC(=O)O [NCGC00168932-02]
Resp: 1.59e-05

Req: Find AC50 (wild-type ZIKV (Ugandan MR766 strain) in Vero cells) for the entry CC1=CC(=O)[C@@H](O)[C@]2(C)C3[C@@H](O)[C@@H]4OC(=O)[C@@H]([C@H]4C)[C@]3(C)C(=O)C[C@@H]12 (stereo partly drawn) [NCGC00384574-01]
Resp: 1.61e-06

Req: Please provide the recorded AC50 for C/C=C(\C)C(=O)O[C@H]1C=C(CO)C(=O)[C@H](OC(C)=O)[C@H]1C(C)C [NCGC00180769-03] , tested on wild-type ZIKV (Ugandan MR766 strain) in Vero cells.
Resp: 4.53e-05

Req: Item: CCCOc1ccc([S+](=O)([O-])N2CCN(CCO)CC2)cc1-c1nc2c(CCC)cn(CC)c2c(=O)[nH]1 [NCGC00378703-02] Test system: wild-type ZIKV (Ugandan MR766 strain) in Vero cells Read-out: AC50 Value: ?
Resp: 5.8e-05

Req: Lab note: need AC50 for C[C@@H]1O[C@@H](O[C@H]2[C@H](O[C@H]3CC[C@@]4(C)C(CC[C@]5(C)C4C=C[C@]46OC[C@@]7(CCC(C)(C)C[C@H]74)[C@@H](O[C@@H]4O[C@@H](C)[C@H](O)[C@@H](O)[C@H]4O)C[C@]65C)[C@]3(C)CO)O[C@H](CO)[C@@H](O)[C@@H]2O[C@@H]2O[C@H](CO)[C@@H](O)[C@H](O)[C@H]2O)[C@H](O)[C@H](O)[C@H]1O (stereo partly drawn) [NCGC00384707-01] on wild-type ZIKV (Ugandan MR766 strain) in Vero cells, anyone have it?
Resp: 6.18e-06

Req: Observed AC50 on wild-type ZIKV (Ugandan MR766 strain) in Vero cells for CC(=O)OC12C(O)C(C)C3(O)C4C=C(C)C(=O)C4CC(CO)=CC3C1C2(C)C (stereo not drawn) [NCGC00385123-01] , please.
Resp: 1.12e-05
